# credit: paper PMC2756588

target: Myo3, P36006; test: SPOT array; settings: median of control spots 468
Catalogue of SPOT intensity values
Just the number, please.

The following binders have reported results that may help.
> print(dat)
            binder  reported.property  reported
1  TPRLSLPRLPNKHHW     SPOT intensity         0
2  HHKRRPTTIDVPGLT     SPOT intensity         7
3  TKPTPPPKPSHLKPK     SPOT intensity         0

SPOT intensity reading for LFMKGTPEFPKSGFS : 54

Record SSAAPPPPPRRATPE . Reported SPOT intensity: 99

SPOT intensity reading for PPLPRAPPVPPATFE : 269

Entry under test: RRARRQMGIPTISQV . Its SPOT intensity was 10

Measured SPOT intensity, STKKPRPPVKSKPKH : 0
